What Kd was measured for each of the following?
# TGT: alpha-PrP (human recombinant prion protein) (human, UniProt P04156 23-230)
# ASSAY_PROTOCOL: fluorescence anisotropy; pH 5
# TEST_PARAMETERS: pseudoknot
Answers are plain numbers, in nM.

Worked examples follow.
GCCUCAUGGUGGUGGCUGGGGGCAGCCUCAUGGUGGUGGCUGGGG (structured_RNA) [Hm45]: 2900
GCCCCAUGGAGGUGGCUGGGGCCAGCCUCAUGGAGGUGGCUGGGGC (structured_RNA) [Cm47 (Cm48 in Table 2)]: 1510
GUCAAGGACAAGGUCAAGGUCAAGGUUCUUUUACUGCUUUGGGC (structured_RNA) [Ym44]: 1630

Exam item: I'd like to know its Kd. The binder in question is CAGGGUGGCACCUGGGGGCAGCCCCACGGUGGUGGCUG (structured_RNA) [Mm38]
Marked response: 3820
